Recorded poly reactivity octet max binding response (nm) for the following binders
- targetOrSystem: polyclonal human IgG
- procedureText: BLI (Octet) polyreactivity
Form entry: value (nm) — number only.

Worked set:
FX-3-6-m3 (antibody, V domains shown) VH: QVQLVESGGGVVQPGRSLRLSCAASGFTFSTYAMHWVRQAPGKGLEWVAVISYDANYKYYADSVKGRFTISRDNSKNTLYLQMNSLRAEDTAVYYCAKDSQLRSLLYFEWLSQGYFDYWGQGTLVTVSS VL: EIVMTQSPATLSVSPGERATLSCRSSQSITFDYKNYLAWYQQKPGQAPRLLIYWGSTRATGIPARFSGSGSGTEFTLTISSLQSEDFAVYYCQQHYRTPPSFGQGTKVEIK: 0.774
FX-12-2-m3 (antibody, V domains shown) VH: QVQLVQSGAEVKKPGASVKVSCKASGFTFSTYAINWVRQATGQGLEWMGVISYDANYKYYAQKFQGRVTMTRDTSISTAYMELSSLRSEDTAVYYCARDSQLRSLLYFEWLSQGYFDYWGQGTTLTVSS VL: DIQMTQSPSSLSASVGDRVTITCRSSQSITFDYKNYLAWYQQKPGKAPKLLIYWGSSLQSGVPSRFSGSGSGTDFTLTISSLQPEDFATYYCQQHYRTPPSFGQGTKVEIK: 0.391

Query binder follows.
In: // poly reactivity octet max binding response (nm) lookup, key: FX-5-2-m3 (antibody, V domains shown) VH: QVQLVESGGGVVQPGRSLRLSCAASGFTFSTYAMHWVRQAPGKGLEWVCVISYDANYKYYADSVKGRFTCSRDNSKNTLYLQMNSLRAEDTAVYYCARDSRLRSLLYFEWLSQGYFDYWGQGTLVTVSS VL: DIQMTQSPSSLSASVGDRVTITCRSSQSITFDYKNYLAWYQQKPGKAPKLLIYWGSSLQSGVPSRFSGSGSGTDFTLTISSLQPEDFATYYCQQHYRTPPSFGQGTKVEIK
Out: 0.992
